Tested on: 380
METHOD: selective drug sensitivity score (sDSS, relative to normal bone marrow) (sDSS (score)); higher = more potent and effective on the cell line relative to normal bone marrow cells;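 further: ALL cell lines in 384-well plates, five doses spanning 10,000-fold, each plate scaled between vehicle and 100 µmol/L benzalkonium chloride controls, sDSS an adapted area-under-curve metric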
SETUP_CONDITIONS: 72 h
selective drug sensitivity score listing for selected compounds.

Before answering, review these 2 worked examples.
COMPOUND	selective drug sensitivity score
O=C(O)CNC(=O)c1c(O)c2ccccc2n(Cc2ccccc2)c1=O [IOX-2] (top concentration 50000 nM)	8.98
O=c1[nH]c(C2CCCN2)nc2c1oc1ccc(Cl)cc12 (stereo not drawn) (top concentration 10000 nM)	13.1

The record that follows has no selective drug sensitivity score shown yet.
[Q] Short answer please: selective drug sensitivity score, 380, entry CC1(C)CC[C@]2(NC(=O)C(C)(F)F)CC[C@]3(C)[C@H](C(=O)C=C4[C@@]5(C)C=C(C#N)C(=O)C(C)(C)[C@@H]5CC[C@]43C)[C@@H]2C1 [Omaveloxolone] (top concentration 10000 nM)
[A] 10.9

----------
System: COG-LL-319h
METHOD: selective drug sensitivity score (sDSS, relative to normal bone marrow) (sDSS (score)); higher = more potent and effective on the cell line relative to normal bone marrow cells
SETUP_CONDITIONS: 72 h
METRIC_NAME: selective drug sensitivity score
Enter the number alone.

COMPOUND	selective drug sensitivity score
CCn1cc(-c2ccnc3[nH]c(-c4cccc(CN(C)C)c4)cc23)c(-c2ccc(NC(=O)N(C)C)cc2)n1 (top concentration 1000 nM)	22.9
NCC(=O)Nc1ccc(-n2nc(C(F)(F)F)cc2-c2ccc3c(ccc4ccccc43)c2)cc1 (top concentration 25000 nM)	8
CC(C)c1c(C(=O)Nc2ccccc2)c(-c2ccccc2)c(-c2ccc(F)cc2)n1CC[C@@H](O)C[C@@H](O)CC(=O)O [Atorvastatin] (top concentration 10000 nM)	-1
COc1cc2ncnc(Nc3cccc(Cl)c3F)c2cc1OC(=O)N1CCN(C)C[C@H]1C [AZD3759] (top concentration 1000 nM)	0.96
CNC(=O)c1nn(C)c2c1C(C)(C)Cc1cnc(Nc3ccc(N4CCN(C)CC4)cc3)nc1-2 [Milciclib] (top concentration 10000 nM)	7.64

The record that follows has no selective drug sensitivity score shown yet.
[Q] For the compound shown here, CNC(=O)c1ccc2cc([C@@]3(O)CCn4cncc43)ccc2c1 [Orteronel] (top concentration 10000 nM) , give the reported selective drug sensitivity score.
[A] 4.9

----------
Tested on: NALM-16
METHOD: selective drug sensitivity score (sDSS, relative to normal bone marrow) (sDSS (score)); higher = more potent and effective on the cell line relative to normal bone marrow cells
SETUP_CONDITIONS: 72 h
# selective drug sensitivity score values compiled below

Example compounds with recorded selective drug sensitivity score:
> print(dat)
                                   compound                       metric.name  test.value
1  O=C(O)CNC(=O)c1c(O)c2ccccc2n(Cc2ccccc2)c1=O [IOX-2] (top concentration 50000 nM)  selective drug sensitivity score       -0.62
2  Cc1cc(C)c(CNC(=O)c2cc(-c3ccc(CN4CCOCC4)cc3)cc3c2cnn3C2CCCC2)c(=O)[nH]1 [EPZ-5687] (top concentration 10000 nM)  selective drug sensitivity score       -0.36

With those in mind, consider the next compound.
[Q] Find the recorded selective drug sensitivity score belonging to Nc1cc(COc2c(Cl)cc(C[C@H](N)C(=O)O)cc2Cl)c2oc(-c3ccccc3)nc2c1 [JPH203] (top concentration 5000 nM) and report it.
[A] 0

----------
Tested on: SEM cells
METHOD: selective drug sensitivity score (sDSS, relative to normal bone marrow) (sDSS (score)); higher = more potent and effective on the cell line relative to normal bone marrow cells
SETUP_CONDITIONS: 72 h
# maps each entry to its selective drug sensitivity score
Answer as a number with no unit attached.

MOLECULE	selective drug sensitivity score
CNC(=O)c1ccc2cc([C@@]3(O)CCn4cncc43)ccc2c1 [Orteronel] (top concentration 10000 nM)	0

[Q] selective drug sensitivity score lookup needed for CC(C)C(=O)Nc1ccc([N+](=O)[O-])c(C(F)(F)F)c1 [Flutamide] (top concentration 10000 nM) , thanks.
[A] 2.44

[Q] What value of selective drug sensitivity score has been recorded for this entry: Nc1ncnc2c1c(COc1cccc(Cl)c1)nn2C1CCOCC1 (top concentration 10000 nM)
[A] -0.64

[Q] Need selective drug sensitivity score, item CC[C@]12C=CCN3CC[C@@]4(c5cc([C@@]6(C(=O)OC)C[C@@H]7C[C@@H](C(C)(F)F)CN(Cc8c6[nH]c6ccccc86)C7)c(OC)cc5N(C)[C@H]4[C@@](O)(C(=O)OC)[C@@H]1OC(C)=O)[C@@H]32 [Vinflunine] (top concentration 1000 nM)
[A] 6.28

----------
Measured selective drug sensitivity score values are reported for all entries that follow.
Tested on: PEER
METHOD: selective drug sensitivity score (sDSS, relative to normal bone marrow) (sDSS (score)); higher = more potent and effective on the cell line relative to normal bone marrow cells
SETUP_CONDITIONS: 72 h
// response body must contain only the number

COMPOUND	TARGET_SYSTEM	selective drug sensitivity score
O=c1[nH]cc(F)c(=O)[nH]1 [Fluorouracil] (top concentration 10000 nM)	PEER	-0.64
COCCOc1cnc2ccn([C@H](C)c3nnc4c(F)cc(-c5cnn(C)c5)cn34)c(=O)c2c1 [AMG-337] (top concentration 10000 nM)	PEER	-0.06
NC(=S)N/N=C/c1ncccc1N [Triapine] (top concentration 10000 nM)	PEER	2.08

[Q] Request body: readout selective drug sensitivity score, system PEER, query Cc1cn(-c2cc(NC(=O)c3ccc(C)c(Nc4nccc(-c5cnccn5)n4)c3)cc(C(F)(F)F)c2)cn1 [Radotinib] (top concentration 10000 nM) . Return the value.
[A] 19.3

[Q] Param readout= selective drug sensitivity score; system= PEER; entry= NS(=O)(=O)OC[C@@H]1C[C@@H](n2ccc3c(N[C@H]4CCc5ccccc54)ncnc32)C[C@@H]1O [Pevonedistat] (top concentration 10000 nM) ; returns value.
[A] 19.7

[Q] Enter reported selective drug sensitivity score observed with PEER for Cc1cc2c(C(C)C)c(O)c(O)c(C=O)c2c(O)c1-c1c(C)cc2c(C(C)C)c(O)c(O)c(C=O)c2c1O [AT-101] (top concentration 100000 nM)
[A] 4.18

[Q] Provide the documented selective drug sensitivity score with PEER as the system for Cn1cc(C[C@@H](N)C(=O)O)c2ccccc21 [1-methyl-D-tryptophan] (top concentration 5000 nM)
[A] -0.62

[Q] Request - read-out selective drug sensitivity score | tested on PEER | compound CN[C@@H](C)C(=O)N[C@H]1CN(C(=O)CC(C)C)CC[C@H]2CC[C@@H](C(=O)NC(c3ccccc3)c3ccccc3)N2C1=O [AT-406] (top concentration 10000 nM)
[A] -1.16

[Q] What is its selective drug sensitivity score for PEER? Entry: COc1ccccc1S(=O)(=O)Nc1ccc2c(c1)CN(C)C(=O)N2 [PFI-1] (top concentration 30000 nM)
[A] 2.4

----------
Tested on: MOLT-4
METHOD: selective drug sensitivity score (sDSS, relative to normal bone marrow) (sDSS (score)); higher = more potent and effective on the cell line relative to normal bone marrow cells
SETUP_CONDITIONS: 72 h
// values below are reported selective drug sensitivity score
In your answer, state the number alone without any accompanying words.

Examples from the recorded data:
> print(dat)
                                   compound  test.value
1  CCc1cc2c(cc1N1CCC(N3CCOCC3)CC1)C(C)(C)c1[nH]c3cc(C#N)ccc3c1C2=O [Alectinib] (top concentration 1000 nM)       -0.22
2  CC1=NN(c2ccc(C(=O)O)cc2)C(=O)C1=Cc1ccc(-c2cc(C)c(C)cc2[N+](=O)[O-])o1 [C646] (top concentration 25000 nM)        0.24
3  CCn1c(-c2nonc2N)nc2cnc(Oc3cccc(NC(=O)c4ccc(OCCN5CCOCC5)cc4)c3)cc21 (top concentration 10000 nM)        1.86
4  C[C@@H](Oc1ccc2[nH]nc(/C=C/c3cnn(CCO)c3)c2c1)c1c(Cl)cncc1Cl (top concentration 1000 nM)       -0.54

[Q] Give MOLT-4 selective drug sensitivity score for COc1cc2/c(=N/c3ccc(Br)cc3F)nc[nH]c2cc1OCC1CCN(C)CC1 [Vandetanib] (top concentration 1000 nM)
[A] -0.22

----------
Tested on: P30-OHKUBO
METHOD: selective drug sensitivity score (sDSS, relative to normal bone marrow) (sDSS (score)); higher = more potent and effective on the cell line relative to normal bone marrow cells
SETUP_CONDITIONS: 72 h
METRIC_NAME: selective drug sensitivity score
Could you keep your reply to the number by itself?

Recorded results for 10 compounds are shown here.
COMPOUND	TEST_VALUE
CS(=O)(=O)N1CCN(Cc2cc3nc(-c4cccc5[nH]ncc45)nc(N4CCOCC4)c3s2)CC1 [Pictilisib] (top concentration 10000 nM)	13
COc1cc2ncnc(Nc3cccc(Cl)c3F)c2cc1OC(=O)N1CCN(C)C[C@H]1C [AZD3759] (top concentration 1000 nM)	-0.04
CCc1c2c(nc3ccc(O)cc13)-c1cc3c(c(=O)n1C2)COC(=O)[C@]3(O)CC [SN-38] (top concentration 10000 nM)	24.6
C/C=C1\NC(=O)[C@H]2CSSCC/C=C/[C@H](CC(=O)N[C@H](C(C)C)C(=O)N2)OC(=O)[C@H](C(C)C)NC1=O [Romidepsin] (top concentration 1000 nM)	1.66
C=C(c1ccc(C(=O)O)cc1)c1cc2c(cc1C)C(C)(C)CCC2(C)C [Bexarotene] (top concentration 10000 nM)	-5.3
O=C(c1cc(Cc2n[nH]c(=O)c3ccccc23)ccc1F)N1CCN(C(=O)C2CC2)CC1 [Olaparib] (top concentration 10000 nM)	2.98
CS(=O)(=O)CCNCc1ccc(-c2ccc3ncnc(Nc4ccc(OCc5cccc(F)c5)c(Cl)c4)c3c2)o1 [Lapatinib] (top concentration 1000 nM)	0.3
COc1cc(C)[nH]c(=O)c1CNC(=O)c1c(C)n([C@H](C)C2CCOCC2)c2ccccc12 [CPI-360] (top concentration 10000 nM)	1.8
CC/C(=C(\c1ccccc1)c1ccc(OCCN(C)C)cc1)c1ccccc1 [Tamoxifen] (top concentration 10000 nM)	3.32
COc1cccc(OCCCN)c1-c1cc(Nc2cnc(C#N)cn2)n[nH]1 [Prexasertib] (top concentration 10000 nM)	21.3

[Q] I'd like to know its selective drug sensitivity score. The compound in question is NC(=O)c1cccc(-c2cccc(OC(=O)NC3CCCCC3)c2)c1 [URB597] (top concentration 1000 nM)
[A] -0.46

[Q] Reported selective drug sensitivity score for CC(C)c1cc(C(=O)N2Cc3ccc(CN4CCN(C)CC4)cc3C2)c(O)cc1O [Onalespib] (top concentration 2500 nM) : what is it?
[A] 1.32

[Q] State the recorded selective drug sensitivity score for this entry: Cc1c(F)cc(C(=O)NC2CC2)cc1-c1ccc(C(=O)NCC(C)(C)C)cn1 [Losmapimod] (top concentration 10000 nM)
[A] 7.82
